Kindly state caspase-3/7 activity (Lum), compound with cisplatin for each of the entries shown.
Tested on: cisplatin-resistant ovarian cancer cell line A2780cis
Assay: Caspase-3/7 activity assay (apoptotic cell death), compound alone or with cisplatin
Type: cell-based, human
Conditions: Table 3; compound 20 μM with 20 μM of cisplatin; 20 h
Experimental: Cell proliferation was determined using a CyQUANT Direct Cell Proliferation Assay kit (Invitrogen), the activity of caspase-3/7 was measured using a Caspase-Glo 3/7 Assay Systems (Promega, Madison, Wis.), and the MTS calorimetric survival assay was performed using the CellTiter 96 AQueous One Solution Cell Proliferation Assay kit (Promega, Madison, Wis.), according to the manufacturer's instructions. The survival fractions were calculated after setting untreated control cells at 100%. […]
One number for each entry, in Lum.

Entry under test: O=C(NC(=S)NC1CCS(=O)(=O)C1)c1ccccc1 (stereo not shown) . Its caspase-3/7 activity (Lum), compound with cisplatin was 21

Entry under test: Cc1ccc(NC(=S)NC(=O)c2cccs2)nc1 . Its caspase-3/7 activity (Lum), compound with cisplatin was 50

Entry under test: O=C(NC(=S)NCCN1CCOCC1)c1ccc(F)cc1 . Its caspase-3/7 activity (Lum), compound with cisplatin was 18

Entry under test: CC(C)C(=O)NC(=S)Nc1nc2ccc(Cl)cc2s1 . Its caspase-3/7 activity (Lum), compound with cisplatin was 23

Entry under test: COCCCNC(=S)NC(=O)c1ccc(F)cc1 . Its caspase-3/7 activity (Lum), compound with cisplatin was 18

Entry under test: O=C(NC(=S)NCCc1ccccc1)C1CCCCC1 . Its caspase-3/7 activity (Lum), compound with cisplatin was 18

Entry under test: Cc1cccnc1NC(=S)NC(=O)c1cccs1 . Its caspase-3/7 activity (Lum), compound with cisplatin was 25

Entry under test: COc1ccc(C(C)=C2C(=O)NC(=S)NC2=O)cc1OC . Its caspase-3/7 activity (Lum), compound with cisplatin was 21

Entry under test: Cc1ccc(NC(=S)NC(=O)c2ccc(F)cc2)nc1 . Its caspase-3/7 activity (Lum), compound with cisplatin was 22

Now turn to the next compound.
Entry under test: CC(C)C(=O)NC(=S)Nc1ccc(F)c(Cl)c1 . Its caspase-3/7 activity (Lum), compound with cisplatin was 17

###

test system: cisplatin-resistant ovarian cancer cell line A2780cis; test: Caspase-3/7 activity assay (apoptotic cell death), compound alone or with cisplatin; format: cell-based, human; settings: Table 3; compound 20 μM with 20 μM of cisplatin; 20 h
Measured Endpoint: caspase-3/7 activity (Lum), compound with cisplatin
Answers are plain numbers, in Lum.

Entry under test: Cc1c(NC(=S)NC(=O)C(C)(C)C)c(=O)n(-c2ccccc2)n1C [Compound 2-10] . Its caspase-3/7 activity (Lum), compound with cisplatin was 20

Would you mind giving caspase-3/7 activity (Lum), compound with cisplatin for every compound in the list below?
1. O=C(NC(=S)NCC1CCCO1)c1ccccc1 (stereo not drawn) [Compound 2-9]
2. O=C(NC(=S)NC1CCS(=O)(=O)C1)c1ccc(F)cc1 (stereo not drawn) [Compound 2-13]

1. 20
2. 20

###

system: cisplatin-resistant ovarian cancer cell line A2780cis; experiment: CellTiter-Blue cell viability assay, compound alone or with cisplatin or carboplatin, 24 h; type: cell-based, human; conditions: compound 50 μM + cisplatin 20 μM; 24 h
Measured Endpoint: survival (%) of cells with compound and cisplatin (20 μM)
Answers are plain numbers, in %.

Entry under test: Cc1ccc(NC(=S)NC(=O)c2cccs2)nc1 [Compound 2-19] . Its survival (%) of cells with compound and cisplatin (20 μM) was 53.2

Entry under test: Cc1ccc(-n2c(=S)[nH]c3ccccc3c2=O)cc1F [Compound 1-17] . Its survival (%) of cells with compound and cisplatin (20 μM) was 26.7

Entry under test: Cc1cccc(-n2c(=S)[nH]c3cc(Cl)ccc3c2=O)c1C [Compound 1-21] . Its survival (%) of cells with compound and cisplatin (20 μM) was 26.7

Entry under test: CC(C)C(=O)NC(=S)Nc1nc2ccc(Cl)cc2s1 [Compound 2-33] . Its survival (%) of cells with compound and cisplatin (20 μM) was 58.6

New cases:
Entry under test: CCc1ccccc1-n1c(=S)[nH]c2ccccc2c1=O [Compound 1-19] . Its survival (%) of cells with compound and cisplatin (20 μM) was 4.9

###

tested on: cisplatin-resistant ovarian cancer cell line A2780cis; assay: Caspase-3/7 activity assay (apoptotic cell death), compound alone or with cisplatin; type: cell-based, human; conditions: Table 3; compound 20 μM with 20 μM of cisplatin; 20 h
Kindly state caspase-3/7 activity (Lum), compound with cisplatin for each of the entries shown.
Give bare numbers, in Lum.

Look over these answered cases.
Entry under test: O=C(NC(=S)Nc1ccccc1N1CCOCC1)c1ccco1 . Its caspase-3/7 activity (Lum), compound with cisplatin was 20

Entry under test: O=C(NC(=S)Nc1ccccc1)c1ccc(Br)o1 . Its caspase-3/7 activity (Lum), compound with cisplatin was 20

New cases:
Entry under test: O=C(NC(=S)NCc1ccccc1)C1CCCCC1 . Its caspase-3/7 activity (Lum), compound with cisplatin was 20

###

Kindly state Survival (%) of cells with compound and carboplatin (200 μM) for each of the entries shown.
tested on: cisplatin-resistant ovarian cancer cell line A2780cis; assay: CellTiter-Blue cell viability assay, compound alone or with cisplatin or carboplatin, 24 h; type: cell-based, human; settings: compound 20 μM + carboplatin 200 μM; 24 h
Give bare numbers, in %.

Look over these answered cases.
Entry under test: CCCn1c(=S)[nH]c2cc(OC)c(OC)cc2c1=O . Its Survival (%) of cells with compound and carboplatin (200 μM) was 65.8

Entry under test: Cc1ccc(-n2c(=S)[nH]c3ccccc3c2=O)cc1F . Its Survival (%) of cells with compound and carboplatin (200 μM) was 79.3

Would you mind giving Survival (%) of cells with compound and carboplatin (200 μM) for every compound in the list below?
1. COc1cc(-n2c(=S)[nH]c3ccccc3c2=O)c(Cl)cc1Cl [mdivi-1, reference compound]
2. CCc1ccccc1-n1c(=S)[nH]c2ccccc2c1=O

1. 75.1
2. 70.0

###

test system: cisplatin-resistant ovarian cancer cell line A2780cis; assay: CellTiter-Blue cell viability assay, compound alone or with cisplatin or carboplatin, 24 h; format: cell-based, human; settings: Homo sapiens, A2780cis; compound 50 μM; 24 h; untreated cells = 100%; read-out: survival (%) of cells with compound alone
Measured Endpoint: viability at 50 µM (%)
Numbers only, in %.

Look over these answered cases.
Entry under test: Cc1ccc(-n2c(=S)[nH]c3ccccc3c2=O)cc1F . Its viability at 50 µM was 101

Entry under test: CCc1ccccc1-n1c(=S)[nH]c2ccccc2c1=O . Its viability at 50 µM was 98.5

Entry under test: Cc1cccc(-n2c(=S)[nH]c3cc(Cl)ccc3c2=O)c1C . Its viability at 50 µM was 84.9

Entry under test: CCCn1c(=S)[nH]c2cc(OC)c(OC)cc2c1=O . Its viability at 50 µM was 88.4

Now turn to the next compound.
Entry under test: O=C(NC(=S)Nc1ccccn1)c1ccccc1 . Its viability at 50 µM was 81.8
